Tested on: Mycobacterium tuberculosis
Experiment: Antimycobacterial activity against Mycobacterium tuberculosis H37Rv ATCC 27294 after 7 days by broth microdilution method
Format: functional
Settings: H37Rv ATCC 27294, 168 h
QUANTITY_NAME: MIC (µg/mL)
Number only, in µg/mL; omit the unit.

CNC(=O)c1cccn2cc(-c3cccc(-c4cncc(OC)c4)c3)nc12 = 2
COc1cncc(-c2cccc(-c3cn4cccc(C(N)=O)c4n3)c2)c1 = 0.5
COc1cncc(-c2cccc(-c3nc4c(C(N)=O)cccc4o3)c2)c1 = 2
COc1cncc(-c2cccc(-c3nc4c(C(N)=O)cccc4[nH]3)c2)c1 = 4
CN(C)CCOc1cncc(-c2cccc(-c3cn4cccc(C(N)=O)c4n3)c2)c1 = 16
COc1cccc(-c2cccc(-c3cn4cccc(C(N)=O)c4n3)c2)c1 = 2

Test system Mycobacterium tuberculosis; read-out MIC; what value for `NC(=O)c1cccn2cc(-c3cccc(-c4cncc(OC[C@H]5CCCO5)c4)c3)nc12` ? 0.25

Also need `COc1cncc(-c2cccc(-c3cn4ccc(OC)c(C(N)=O)c4n3)c2)c1` , thanks. 2

Also need `COc1ccn2cc(-c3cccc(-c4cncc(OC[C@H]5CCCO5)c4)c3)nc2c1C(N)=O` , thanks. 1

Also need `CCN(CC)CCNC(=O)c1cccn2cc(-c3cccc(-c4cncc(OC)c4)c3)nc12` , thanks. 4

Also need `NC(=O)c1cccn2cc(-c3cccc(-c4cccc(F)c4)c3)nc12` , thanks. 16

Also need `COc1cncc(-c2cc(-c3cn4cccc(C(N)=O)c4n3)ccn2)c1` , thanks. 16

Also need `COc1cncc(-c2cccc(-c3nc4c(C(N)=O)cccn4n3)c2)c1` , thanks. 2

---

Experiment: Lipophilicity, log D of the compound in 0.01 M sodium phosphate at pH 7.4 after 5 hrs by shake-flask technique
Type: physicochemical
QUANTITY_NAME: logD at 5 h
Output: the number by itself.

COc1cncc(-c2cccc(-c3cn4ccc(OC)c(C(N)=O)c4n3)c2)c1 = 2.3

// query logD at 5 h value for entry `NC(=O)c1cccn2cc(-c3cccc(-c4cncc(OCCF)c4)c3)nc12` 3.7

---

Assay: Fraction unbound in human plasma after 5 hrs by rapid equilibrium dialysis method
Format: ADME, cell-free
Measured fraction unbound at 5 h, listed per entry.
Output: the number by itself.

Completed entries (count: 2):
CN(C)CCOc1cncc(-c2cccc(-c3cn4cccc(C(N)=O)c4n3)c2)c1 = 0.073
COc1cncc(-c2cccc(-c3cn4ccc(OC)c(C(N)=O)c4n3)c2)c1 = 0.02

// query fraction unbound at 5 h value for entry `NC(=O)c1cccn2cc(-c3cccc(-c4cncc(OCCF)c4)c3)nc12` 0.01

---

Experiment: Intrinsic clearance in mouse microsomes
Assay type: ADME, Microsome
Measured microsomal CLint, listed per entry.
Give the number first and the unit second.

COc1cncc(-c2cccc(-c3cn4cccc(C(N)=O)c4n3)c2)c1 = 113 µL/min/mg
COc1cncc(-c2cccc(-c3cn4ccc(OC)c(C(N)=O)c4n3)c2)c1 = 48 µL/min/mg

Pending compound:
// query microsomal CLint value for entry `COc1cncc(-c2cccc(-c3cn4ccnc(C(N)=O)c4n3)c2)c1` 58 µL/min/mg

---

Assay: Aqueous solubility of the compound in 0.1 M sodium phosphate buffer at pH 7.4 after 24 hrs
Type: physicochemical
Measured solubility at 24 h, listed per entry.
Number only, in µM; omit the unit.

Completed entries (count: 5):
COc1cncc(-c2cccc(-c3nc4c(C(N)=O)cccc4o3)c2)c1 = 2
NC(=O)c1nccn2cc(-c3cccc(-c4cncc(OC[C@H]5CCCO5)c4)c3)nc12 = 40
COc1cncc(-c2cccc(-c3cn4ccnc(C(N)=O)c4n3)c2)c1 = 10
COc1cncc(-c2cc(-c3cn4cccc(C(N)=O)c4n3)ccn2)c1 = 22
COc1ccn2cc(-c3cccc(-c4cncc(O[C@H]5CCOC5)c4)c3)nc2c1C(N)=O = 600

Pending compound:
// query solubility at 24 h value for entry `NC(=O)c1cccn2cc(-c3cccc(-c4cncc(OC[C@H]5CCCO5)c4)c3)nc12` 5.3

---

Test: Intrinsic clearance in human microsomes
Type: ADME, Microsome
Measured microsomal CLint, listed per entry.
Number only, in µL/min/mg; omit the unit.

NC(=O)c1cccn2cc(-c3cccc(-c4cncc(OCCF)c4)c3)nc12 = 75
CN(C)CCOc1cncc(-c2cccc(-c3cn4cccc(C(N)=O)c4n3)c2)c1 = 47

Pending compound:
// query microsomal CLint value for entry `COc1cncc(-c2cccc(-c3cn4ccc(OC)c(C(N)=O)c4n3)c2)c1` 56

---

Test: Fraction unbound in mouse plasma after 5 hrs by rapid equilibrium dialysis method
Assay type: ADME, cell-free
QUANTITY_NAME: fraction unbound at 5 h
Output: the number by itself.

COc1cncc(-c2cccc(-c3cn4ccnc(C(N)=O)c4n3)c2)c1 = 0.04
COc1cncc(-c2cccc(-c3cn4cccc(C(N)=O)c4n3)c2)c1 = 0.019

// query fraction unbound at 5 h value for entry `COc1cncc(-c2cccc(-c3cn4ccc(OC)c(C(N)=O)c4n3)c2)c1` 0.049

---

Tested on: Mycobacterium tuberculosis
Assay: Antimycobacterial activity against Mycobacterium tuberculosis H37Rv ATCC 27294 after 7 days by broth microdilution method
Assay type: functional
Settings: H37Rv ATCC 27294, 168 h
QUANTITY_NAME: MIC (µM)
Number only, in µM; omit the unit.

Completed entries (count: 2):
NC(=O)c1cccn2cc(-c3cccc(-c4cncc(OCCF)c4)c3)nc12 = 0.78
COc1ccn2cc(-c3cccc(-c4cncc(O[C@H]5CCOC5)c4)c3)nc2c1C(N)=O = 12.5

// query MIC value for entry `COc1cncc(-c2cccc(-c3cn4ccnc(C(N)=O)c4n3)c2)c1` 12.5

Also need `NC(=O)c1nccn2cc(-c3cccc(-c4cncc(OC[C@H]5CCCO5)c4)c3)nc12` , thanks. 6.25

Also need `NC(=O)c1cccn2cc(-c3cccc(-c4cncc(OCC(F)F)c4)c3)nc12` , thanks. 3.12

---

Measured solubility at 24 h, listed per entry.
Test: Aqueous solubility of the compound in 0.1 M sodium phosphate buffer at pH 7.4 after 24 hrs
Assay type: physicochemical

COc1cccc(-c2cccc(-c3cn4cccc(C(N)=O)c4n3)c2)c1 = < 1 µM
NC(=O)c1cccn2cc(-c3cccc(-c4cncc(OCC(F)F)c4)c3)nc12 = < 1 µM
COc1cncc(-c2cccc(-c3cn4cccc(C(N)=O)c4n3)c2)c1 = < 1 µM
COc1cncc(-c2cc(-c3cn4cccc(C(N)=O)c4n3)ccc2F)c1 = < 1 µM

Pending molecule:
// query solubility at 24 h value for entry `CCN(CC)CCNC(=O)c1cccn2cc(-c3cccc(-c4cncc(OC)c4)c3)nc12` > 2460 µM

---

Tested on: Mycobacterium tuberculosis
Experiment: Antimycobacterial activity against Mycobacterium tuberculosis H37Rv ATCC 27294 after 7 days by broth microdilution method
Type: functional
Details: H37Rv ATCC 27294, 168 h
QUANTITY_NAME: MIC

Completed entries (count: 2):
COc1cncc(-c2cncc(-c3cn4cccc(C(N)=O)c4n3)c2)c1 = > 32 µg/mL
COc1cncc(-c2cccc(-c3cn4cccc(C(=O)N(C)C)c4n3)c2)c1 = > 32 µg/mL

Pending compound:
// query MIC value for entry `COc1cncc(-c2cc(-c3cn4cccc(C(N)=O)c4n3)ccc2F)c1` > 32 µg/mL
